B1: VH:VL chains; a variant is named by its letters at X, in order (parent)
chain 1: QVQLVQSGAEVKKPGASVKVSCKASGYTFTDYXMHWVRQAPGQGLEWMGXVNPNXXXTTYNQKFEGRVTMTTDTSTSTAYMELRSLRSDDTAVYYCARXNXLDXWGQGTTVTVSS
chain 2: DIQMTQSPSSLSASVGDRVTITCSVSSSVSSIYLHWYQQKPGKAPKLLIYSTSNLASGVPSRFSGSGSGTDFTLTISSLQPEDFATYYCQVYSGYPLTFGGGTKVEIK

variants of: B1; test: yeast display scFab, FACS + sequencing
Measure name: non-specific binding call

Solved cases below.
mutation_name=YRAGGFVV measure_name="non-specific binding call" experimental_result=binds
mutation_name=FRTGDAVS measure_name="non-specific binding call" experimental_result="no binding"
mutation_name=YRGEGAWV measure_name="non-specific binding call" experimental_result=binds
mutation_name=YRGKSSWA measure_name="non-specific binding call" experimental_result=binds
mutation_name=YRGGGALS measure_name="non-specific binding call" experimental_result=binds

Next item in the queue.
Incoming: Let me know recorded non-specific binding call for "YRRRGSLV" , thanks.
Outgoing: binds
